Values compiled from patent US20140205612A1.

- target-desc: 92RW020 Env on pseudovirus (HIV-1 92RW020)
- assay-details: cell-based or functional assay
readout: IC50 (ug/ml), pseudovirus neutralization, TZM-bl assay (µg/mL)
State the answer as a number, implicitly in µg/mL.

Some entries whose results are on file:
1503_H05 (PG16) (TCN-119) (antibody, V domains shown) VH: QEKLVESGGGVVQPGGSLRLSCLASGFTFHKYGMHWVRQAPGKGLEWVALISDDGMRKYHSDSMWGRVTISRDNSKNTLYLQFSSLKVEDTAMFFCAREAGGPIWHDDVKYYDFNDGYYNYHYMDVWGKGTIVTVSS VL: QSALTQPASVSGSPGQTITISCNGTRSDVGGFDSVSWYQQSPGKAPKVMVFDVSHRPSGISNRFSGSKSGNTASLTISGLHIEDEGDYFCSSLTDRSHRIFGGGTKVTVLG; 0.02
1469_M23 (PG16) (TCN-118) (antibody, V domains shown) VH: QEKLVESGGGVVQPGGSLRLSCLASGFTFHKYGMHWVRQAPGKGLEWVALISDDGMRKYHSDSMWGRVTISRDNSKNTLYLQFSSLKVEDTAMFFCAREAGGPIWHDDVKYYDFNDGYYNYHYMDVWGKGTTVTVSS VL: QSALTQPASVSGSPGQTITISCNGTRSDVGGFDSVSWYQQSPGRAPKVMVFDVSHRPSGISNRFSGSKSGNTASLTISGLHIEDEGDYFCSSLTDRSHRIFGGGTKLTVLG; 0.05
1489_I13 (PG16) (TCN-120) (antibody, V domains shown) VH: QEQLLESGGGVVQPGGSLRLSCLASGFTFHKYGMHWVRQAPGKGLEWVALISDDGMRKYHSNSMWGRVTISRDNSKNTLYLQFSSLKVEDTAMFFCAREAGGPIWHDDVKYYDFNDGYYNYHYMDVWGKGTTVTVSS VL: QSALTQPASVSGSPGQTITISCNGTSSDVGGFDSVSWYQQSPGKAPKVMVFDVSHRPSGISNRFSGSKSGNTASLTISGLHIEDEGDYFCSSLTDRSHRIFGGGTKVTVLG; 0.03

Shift focus to the following entry.
Output measured IC50 (ug/ml), pseudovirus neutralization, TZM-bl assay for this item: 1456_A12 (PG16) (TCN-117) (antibody, V domains shown) VH: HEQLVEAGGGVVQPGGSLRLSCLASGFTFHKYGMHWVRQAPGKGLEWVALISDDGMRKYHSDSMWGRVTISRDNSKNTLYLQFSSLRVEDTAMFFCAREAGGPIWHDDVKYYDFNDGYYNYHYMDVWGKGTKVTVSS VL: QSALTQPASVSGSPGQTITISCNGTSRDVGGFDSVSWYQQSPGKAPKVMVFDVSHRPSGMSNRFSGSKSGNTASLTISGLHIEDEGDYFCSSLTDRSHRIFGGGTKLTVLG
0.05
